The reported measurements were obtained from a melting point compilation (Tetko et al.; mined from patent text by program, amines drawn as free bases though some values may be those of a salt).

READOUT KIND: melting point

What melting point value was documented for this compound, COC(=O)c1nn(-c2ccc(Cl)cc2Cl)c(-c2ccc(Cl)cc2)c1CBr ? 145 °C

What melting point value was documented for this compound, CCCn1nc2c(N)nc3ccccc3c2c1CC(C)(C)C(N)=O ? 224 to 225 °C

What melting point value was documented for this compound, O=C(CCl)c1cc2c(s1)SCCc1cc(=O)n(-c3ccc(Cl)cc3)nc1-2 ? 178 to 180 °C

What melting point value was documented for this compound, COC(=O)C1=C(C)NC(C#N)=C(C(=O)OC)C1c1cccc2c(=O)c(C)c(-c3ccccc3)oc12 (stereo unspecified) ? 250 °C

What melting point value was documented for this compound, O=C1c2cc(Cl)ccc2C(O)N1c1ccc2ccc(Cl)nc2n1 (stereo unspecified) ? 295 to 297 °C

What melting point value was documented for this compound, CC(=O)NCc1cc(CCC(=O)O)no1 ? 134 °C

What melting point value was documented for this compound, CCOC(=O)c1cnc2ccc(OCC)nc2c1O ? 275 to 278 °C

What melting point value was documented for this compound, COc1cc2c(cc1Nc1ncc(Cl)c(N[C@@H]3CCCC[C@H]3NS(C)(=O)=O)n1)NC(=O)CN(CC1CC1)C2 ? 97 °C

Further cases:
What melting point value was documented for this compound, O=C(O)Cc1cccc2c(-c3ccc([N+](=O)[O-])cc3)nccc12 ? 252 to 254 °C

What melting point value was documented for this compound, O=[N+]([O-])c1ccccc1NCC(F)(F)F ? 84 to 89 °C

What melting point value was documented for this compound, COc1ccc(-c2nc(SC)ncc2-c2ccc(Cl)cc2)cc1 ? 127 to 130 °C

What melting point value was documented for this compound, O=C(O)c1cccc(-c2ccc3c(c2)C(c2ccc(Cl)cc2Cl)CO3)c1 (stereo unspecified) ? 192 to 193 °C

What melting point value was documented for this compound, CC(=O)Nc1cc(F)ccc1SCC#N ? 113 to 115 °C
